- Tested on: CCRF-CEM leukemia
- assay-name: NCI-60 one-dose screen, 48 h
- test-parameters: 10 µM unless noted
About 83,000 compounds went through this panel and 20% of them were active in at least one assay; those are over-represented in the sample as a whole. Active and inactive are the calls of the source. How the source made its calls: active means growth percent below 10; inactive means the rest.
Outcomes: Yes (active), No (inactive)

compound	category-label
O=C(N/N=C/c1ccc([N+](=O)[O-])o1)c1[nH]c2ccc(Br)cc2c1-c1ccccc1	Yes
O=C(N/N=C/c1ccc(Cl)s1)c1[nH]c2ccc(Br)cc2c1-c1ccccc1	No
OC1CCc2c(-c3ccc4ncnc(N5CCc6cc(F)c(Cl)cc65)c4c3)cncc21 (stereo not drawn)	No
O=C(c1ccc(Cl)cc1)C1[C@H](c2ccc(Cl)cc2)[C@@H](c2ccccc2)NC12C(=O)Nc1ccc(Br)cc12 (stereo partly drawn)	No
O=C1NC(=C(Cl)Cl)/C(=N/S(=O)(=O)N2CCCCC2CC2(C(F)(F)F)N=N2)N1 (stereo not drawn)	Yes
COc1cc2nc(-c3ccc(Cl)cc3)cc(OCCCNCC3CCCO3)c2cc1OC (stereo not drawn)	No
COc1cc(/C=C/C(=O)c2cc(OC)c(OC)c(OC)c2)ccc1Oc1nc(NCCO)nc(N2CCOCC2)n1	Yes
COc1cc(N=Cc2sc(Nc3nccs3)nc2O)cc(OC)c1OC	No
COc1cc(OC)c(C2SCC(=O)N2Nc2ncnc3ccccc23)cc1OC (stereo not drawn)	No
c1ccc2c(NCCCn3ccnc3)c3oc4ccccc4c3nc2c1	No
Clc1ccc2c(NCCCn3ccnc3)c3oc4ccc(Cl)cc4c3nc2c1	No
CCCC(=O)NC(c1ccc(N(CC)CC)cc1)c1cc(C)c2cccnc2c1O (stereo not drawn)	Yes
O=C(CSc1nc2sc3c(c2c(=O)n1-c1ccc(Cl)cc1)CCCC3)NNC(=O)Nc1cccc(C(F)(F)F)c1	No
CC(C)Sc1nc(Nc2ccc(S(N)(=O)=O)cc2)c(C#N)c(-c2ccc(F)cc2)n1	No
N#Cc1nc(-c2ccccc2)oc1N1CC[C@@H](CO)C1	No
COC(=O)C(C)NS(=O)(=O)/N=C1\NC(=O)NC1=C(Cl)Cl (stereo not drawn)	No
COc1cccc(-c2nn(-c3ccccc3)cc2-c2ccnc(N3CCN(C(=O)Nc4ccc(F)cc4)CC3)c2)c1	No
CSc1ccc2c(c1)N(C(=O)/C(C#N)=C/c1c[nH]c3ccccc13)c1ccccc1S2	No
CCCCCCNC(=O)Oc1ccc(/C(=C(/C)c2ccccc2)c2ccc(OCCN3CCCCCC3)cc2)cc1	No
CN(C)CCCNc1c2ccccc2nc2c1oc1ccc(Cl)cc12	No
CC(=O)Nc1cc(F)cc(-c2ccc3[nH]cc(-c4ccccc4)c3n2)c1	No
O=C(CSc1nnc(-c2ccc3nc(-c4ccc(Cl)cc4)[nH]c3c2)o1)Nc1ccc(C(=O)/C=C/c2ccc(Cl)cc2)cc1	No
O=C(CCCN1C(=O)/C(=C/c2ccccc2F)SC1=S)N1CCOCC1	No
C/C(=N/NC(N)=S)c1ccc(Nc2nc(SCC(C)C)nc(-c3ccc(F)cc3)c2C#N)cc1	No
O=C1[C@H]2Cc3c([nH]c4ccccc34)[C@@H](c3ccc(Br)cc3)N2C(=O)CN1C1CCN(Cc2ccccc2)CC1	No
C#Cc1nc(C2=C(C)C(=N\O)/C(=N/O)C2)cs1	No
COc1cc(OC)c(C2C(Cl)C(=O)N2Nc2ncnc3ccccc23)cc1OC (stereo not drawn)	No
COc1ccc(COc2ccc(/C=C3/C(=O)Nc4cc(Cl)ccc43)cc2)cc1	Yes
O=C1c2c(c3c4cccnc4[nH]c3c3ccc4ccccc4c23)C(=O)N1CCO	No
COc1ccc2[nH]cc(-c3cc(N)n4nc(-c5c[nH]c6ccc(OC)cc56)cc4n3)c2c1	Yes
CNC(=O)c1cc(-c2ccc(NC(=O)Nc3ccc(N4CCN(C)CC4)c(C(F)(F)F)c3)cc2)nc2cccnc12	Yes
Cn1cc(-c2cc(N)n3nc(-c4cn(C)c5ccc(F)cc45)cc3n2)c2cc(F)ccc21	Yes
N[C@@H](Cc1cn(-c2c3ccccc3nc3ccccc23)nn1)C(=O)O	No
O=C1Nc2ccc(Cl)cc2/C1=C/c1ccc(OCC(=O)c2ccc(Br)cc2)cc1	No
COc1ccc(/C=C2\SC(=Nc3cc(C)on3)NC2=O)cc1	No
Clc1ccc2c(NCCCN3CCOCC3)c3oc4ccc(Cl)cc4c3nc2c1	No
COc1cc(-c2nc3ccc(-c4nnc(SCC(=O)Nc5ccc(C(=O)/C=C/c6ccc(Cl)cc6)cc5)o4)cc3[nH]2)cc(OC)c1OC	No
Cn1ccnc1C(=O)/C=C/c1ccc(NC(=O)Nc2ccccc2)cc1	Yes
